target.or.system: T1, recombinant human TfR1 (transferrin receptor protein 1) (human, UniProt P02786 89-760)
T1 construct: Recombinant protein in SPR and ELISA; they were assigned to this molecule; also called hTfR1; huTfR1
T1 sequence (P02786 89-760 limits assumed): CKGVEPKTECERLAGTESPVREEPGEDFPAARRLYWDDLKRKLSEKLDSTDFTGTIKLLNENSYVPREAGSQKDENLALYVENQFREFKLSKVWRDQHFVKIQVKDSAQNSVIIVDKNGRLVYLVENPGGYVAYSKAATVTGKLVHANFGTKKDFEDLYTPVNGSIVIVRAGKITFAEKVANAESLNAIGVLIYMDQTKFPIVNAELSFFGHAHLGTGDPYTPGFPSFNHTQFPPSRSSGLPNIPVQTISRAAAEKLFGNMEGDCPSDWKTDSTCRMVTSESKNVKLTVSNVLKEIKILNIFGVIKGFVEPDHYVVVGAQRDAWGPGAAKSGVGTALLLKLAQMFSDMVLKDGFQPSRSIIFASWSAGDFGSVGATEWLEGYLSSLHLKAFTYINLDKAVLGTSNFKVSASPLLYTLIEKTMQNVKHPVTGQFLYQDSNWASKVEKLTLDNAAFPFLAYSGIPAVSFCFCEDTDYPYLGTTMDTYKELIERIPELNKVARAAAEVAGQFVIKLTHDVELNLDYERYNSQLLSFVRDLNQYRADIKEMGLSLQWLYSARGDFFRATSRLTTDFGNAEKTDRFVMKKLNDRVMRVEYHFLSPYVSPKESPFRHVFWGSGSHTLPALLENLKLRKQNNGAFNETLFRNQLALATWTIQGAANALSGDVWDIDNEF
assay.explanation: ELISA, recombinant TfR1 coated, unconjugated Fab (row 'Fab binding affinity ELISA')
measurement.kind: pEC50
Notebook: values listed as pEC50 are -log10 of the concentration (mol/L).

binder	recorded.measurement
humanized anti-TfR Fab 3A4 VH3/Vκ4 (Fab, V domains shown, also called 3A4 (VH3/Vk4)) VH: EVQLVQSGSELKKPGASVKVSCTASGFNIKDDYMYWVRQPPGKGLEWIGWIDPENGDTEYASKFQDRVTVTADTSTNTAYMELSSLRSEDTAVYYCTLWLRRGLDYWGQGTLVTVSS VL: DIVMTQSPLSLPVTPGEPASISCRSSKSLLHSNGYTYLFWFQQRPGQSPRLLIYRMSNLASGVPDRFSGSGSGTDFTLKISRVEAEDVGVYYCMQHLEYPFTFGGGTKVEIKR	8.82

Now for the binder whose pEC50 we want.
State the recorded pEC50 for this entry: humanized anti-TfR Fab 5H12 VH5 (C33D)/Vκ4 (Fab, V domains shown, also called 5H12 (VH5-C33D/Vk4)) VH: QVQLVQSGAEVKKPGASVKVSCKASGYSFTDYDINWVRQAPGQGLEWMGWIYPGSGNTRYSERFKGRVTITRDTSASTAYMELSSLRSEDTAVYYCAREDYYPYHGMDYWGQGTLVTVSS VL: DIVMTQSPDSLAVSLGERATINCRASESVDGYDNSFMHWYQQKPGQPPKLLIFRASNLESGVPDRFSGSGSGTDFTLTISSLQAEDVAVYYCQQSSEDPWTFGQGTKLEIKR
8.22
